Test settings: in ethanol, 323.15 K
Measure name: solubility (mole fraction)

Enquiry: What does the record list as solubility (mole fraction) for "NC12CC3CC(C1)CC(O)(C3)C2" ?
Return: 0.337

---

Test settings: in ethanol, 298.15 K
Measure name: solubility (mole fraction)
API doc: respond with a numeric literal and nothing else, no unit.

Enquiry: What does the record list as solubility (mole fraction) for "NC12CC3CC(C1)CC(O)(C3)C2" ?
Return: 0.151

---

Test settings: in ethanol, 318.15 K
Measure name: solubility (mole fraction)
API doc: respond with a numeric literal and nothing else, no unit.

Enquiry: What does the record list as solubility (mole fraction) for "NC12CC3CC(C1)CC(O)(C3)C2" ?
Return: 0.296

---

Test settings: in n-propanol, 293.15 K
Measure name: solubility (mole fraction)
API doc: respond with a numeric literal and nothing else, no unit.

Enquiry: What does the record list as solubility (mole fraction) for "NC12CC3CC(C1)CC(O)(C3)C2" ?
Return: 0.171

---

Test settings: in THF, 313.15 K
Measure name: solubility (mole fraction)
API doc: respond with a numeric literal and nothing else, no unit.

Enquiry: What does the record list as solubility (mole fraction) for "NC12CC3CC(C1)CC(O)(C3)C2" ?
Return: 0.0356

---

Test settings: in THF, 283.15 K
Measure name: solubility (mole fraction)

Enquiry: What does the record list as solubility (mole fraction) for "NC12CC3CC(C1)CC(O)(C3)C2" ?
Return: 0.0213

---

Test settings: in ethanol, 278.15 K
Measure name: solubility (mole fraction)

Enquiry: What does the record list as solubility (mole fraction) for "NC12CC3CC(C1)CC(O)(C3)C2" ?
Return: 0.0608

---

Test settings: in n-butanol, 283.15 K
Measure name: solubility (mole fraction)
API doc: respond with a numeric literal and nothing else, no unit.

Enquiry: What does the record list as solubility (mole fraction) for "NC12CC3CC(C1)CC(O)(C3)C2" ?
Return: 0.0657

---

Test settings: in ethanol, 293.15 K
Measure name: solubility (mole fraction)
API doc: respond with a numeric literal and nothing else, no unit.

Enquiry: What does the record list as solubility (mole fraction) for "NC12CC3CC(C1)CC(O)(C3)C2" ?
Return: 0.123

---

Test settings: in methanol, 308.15 K
Measure name: solubility (mole fraction)
API doc: respond with a numeric literal and nothing else, no unit.

Enquiry: What does the record list as solubility (mole fraction) for "NC12CC3CC(C1)CC(O)(C3)C2" ?
Return: 0.0422

---

Test settings: in methanol, 293.15 K
Measure name: solubility (mole fraction)
API doc: respond with a numeric literal and nothing else, no unit.

Enquiry: What does the record list as solubility (mole fraction) for "NC12CC3CC(C1)CC(O)(C3)C2" ?
Return: 0.0253

---

Test settings: in methanol, 318.15 K
Measure name: solubility (mole fraction)
API doc: respond with a numeric literal and nothing else, no unit.

Enquiry: What does the record list as solubility (mole fraction) for "NC12CC3CC(C1)CC(O)(C3)C2" ?
Return: 0.0618

---

Test settings: in methanol, 313.15 K
Measure name: solubility (mole fraction)

Enquiry: What does the record list as solubility (mole fraction) for "NC12CC3CC(C1)CC(O)(C3)C2" ?
Return: 0.0509

---

Test settings: in n-butanol, 328.15 K
Measure name: solubility (mole fraction)
API doc: respond with a numeric literal and nothing else, no unit.

Enquiry: What does the record list as solubility (mole fraction) for "NC12CC3CC(C1)CC(O)(C3)C2" ?
Return: 0.0943

---

Test settings: in ethanol, 303.15 K
Measure name: solubility (mole fraction)
API doc: respond with a numeric literal and nothing else, no unit.

Enquiry: What does the record list as solubility (mole fraction) for "NC12CC3CC(C1)CC(O)(C3)C2" ?
Return: 0.183

---

Test settings: in water, 278.15 K
Measure name: solubility (mole fraction)
API doc: respond with a numeric literal and nothing else, no unit.

Enquiry: What does the record list as solubility (mole fraction) for "NC12CC3CC(C1)CC(O)(C3)C2" ?
Return: 0.0125

---

Test settings: in n-butanol, 308.15 K
Measure name: solubility (mole fraction)
API doc: respond with a numeric literal and nothing else, no unit.

Enquiry: What does the record list as solubility (mole fraction) for "NC12CC3CC(C1)CC(O)(C3)C2" ?
Return: 0.0799

---

Test settings: in methanol, 328.15 K
Measure name: solubility (mole fraction)
API doc: respond with a numeric literal and nothing else, no unit.

Enquiry: What does the record list as solubility (mole fraction) for "NC12CC3CC(C1)CC(O)(C3)C2" ?
Return: 0.0926

---

Test settings: in ethanol, 328.15 K
Measure name: solubility (mole fraction)
API doc: respond with a numeric literal and nothing else, no unit.

Enquiry: What does the record list as solubility (mole fraction) for "NC12CC3CC(C1)CC(O)(C3)C2" ?
Return: 0.389

---

Test settings: in n-butanol, 278.15 K
Measure name: solubility (mole fraction)
API doc: respond with a numeric literal and nothing else, no unit.

Enquiry: What does the record list as solubility (mole fraction) for "NC12CC3CC(C1)CC(O)(C3)C2" ?
Return: 0.0626

---

Test settings: in water, 313.15 K
Measure name: solubility (mole fraction)
API doc: respond with a numeric literal and nothing else, no unit.

Enquiry: What does the record list as solubility (mole fraction) for "NC12CC3CC(C1)CC(O)(C3)C2" ?
Return: 0.0354

---

Test settings: in water, 288.15 K
Measure name: solubility (mole fraction)
API doc: respond with a numeric literal and nothing else, no unit.

Enquiry: What does the record list as solubility (mole fraction) for "NC12CC3CC(C1)CC(O)(C3)C2" ?
Return: 0.0173

---

Test settings: in ethanol, 313.15 K
Measure name: solubility (mole fraction)

Enquiry: What does the record list as solubility (mole fraction) for "NC12CC3CC(C1)CC(O)(C3)C2" ?
Return: 0.256

---

Test settings: in n-butanol, 313.15 K
Measure name: solubility (mole fraction)
API doc: respond with a numeric literal and nothing else, no unit.

Enquiry: What does the record list as solubility (mole fraction) for "NC12CC3CC(C1)CC(O)(C3)C2" ?
Return: 0.0827

---

Test settings: in ethanol, 288.15 K
Measure name: solubility (mole fraction)
API doc: respond with a numeric literal and nothing else, no unit.

Enquiry: What does the record list as solubility (mole fraction) for "NC12CC3CC(C1)CC(O)(C3)C2" ?
Return: 0.0974

---

Test settings: in methanol, 278.15 K
Measure name: solubility (mole fraction)
API doc: respond with a numeric literal and nothing else, no unit.

Enquiry: What does the record list as solubility (mole fraction) for "NC12CC3CC(C1)CC(O)(C3)C2" ?
Return: 0.0136

---

Test settings: in THF, 323.15 K
Measure name: solubility (mole fraction)

Enquiry: What does the record list as solubility (mole fraction) for "NC12CC3CC(C1)CC(O)(C3)C2" ?
Return: 0.0439

---

Test settings: in THF, 318.15 K
Measure name: solubility (mole fraction)
API doc: respond with a numeric literal and nothing else, no unit.

Enquiry: What does the record list as solubility (mole fraction) for "NC12CC3CC(C1)CC(O)(C3)C2" ?
Return: 0.0394

---

Test settings: in n-butanol, 293.15 K
Measure name: solubility (mole fraction)
API doc: respond with a numeric literal and nothing else, no unit.

Enquiry: What does the record list as solubility (mole fraction) for "NC12CC3CC(C1)CC(O)(C3)C2" ?
Return: 0.0704

---

Test settings: in water, 283.15 K
Measure name: solubility (mole fraction)
API doc: respond with a numeric literal and nothing else, no unit.

Enquiry: What does the record list as solubility (mole fraction) for "NC12CC3CC(C1)CC(O)(C3)C2" ?
Return: 0.0146

---

Test settings: in water, 293.15 K
Measure name: solubility (mole fraction)

Enquiry: What does the record list as solubility (mole fraction) for "NC12CC3CC(C1)CC(O)(C3)C2" ?
Return: 0.0207

---

Test settings: in THF, 293.15 K
Measure name: solubility (mole fraction)
API doc: respond with a numeric literal and nothing else, no unit.

Enquiry: What does the record list as solubility (mole fraction) for "NC12CC3CC(C1)CC(O)(C3)C2" ?
Return: 0.0247

---

Test settings: in water, 308.15 K
Measure name: solubility (mole fraction)

Enquiry: What does the record list as solubility (mole fraction) for "NC12CC3CC(C1)CC(O)(C3)C2" ?
Return: 0.0306

---

Test settings: in water, 303.15 K
Measure name: solubility (mole fraction)
API doc: respond with a numeric literal and nothing else, no unit.

Enquiry: What does the record list as solubility (mole fraction) for "NC12CC3CC(C1)CC(O)(C3)C2" ?
Return: 0.0266

---

Test settings: in n-propanol, 328.15 K
Measure name: solubility (mole fraction)
API doc: respond with a numeric literal and nothing else, no unit.

Enquiry: What does the record list as solubility (mole fraction) for "NC12CC3CC(C1)CC(O)(C3)C2" ?
Return: 0.293

---

Test settings: in n-propanol, 298.15 K
Measure name: solubility (mole fraction)
API doc: respond with a numeric literal and nothing else, no unit.

Enquiry: What does the record list as solubility (mole fraction) for "NC12CC3CC(C1)CC(O)(C3)C2" ?
Return: 0.185
